System: BV2 microglia cells
assay: Nitrite release (Griess reaction) in LPS-treated BV2 microglia
Assay type: cell-based
condition: 1 μM, LPS 1 μg/mL, 24 h, basal = 100
Overview of recorded Nitrite Release after 24 h for various compounds
test-readout: Nitrite Release after 24 h (%)

INSERT INTO results (smiles_data, units, obs_value) VALUES
  ('COc1ccc(-c2cc(N)cc(-c3ccccc3)c2)cc1', '%', 124),
  ('Nc1cc(-c2ccccc2)cc(-c2ccc(Cl)cc2)c1', '%', 135),
  ('Cc1ccc(-c2cc(N)cc(-c3ccccc3)c2)cc1', '%', 123),
  ('Nc1cc(-c2ccccc2)cc(-c2ccccc2)c1', '%', 130);
